Tested on: UACC 903 cells
TEST METHOD NOTES: Cell cycle analysis (propidium iodide, FACScan)
REPORTED CONDITIONS: 15 μM, 24 hours
Quick list: G2/M cell population per entry.
METRIC: G2/M cell population

molecule="N#C[Se]CCCCCCc1ccccc1 [PHSC, Phenylhexyl selenocyanate]" observed=11.5
molecule="S=C=NCCCCCCc1ccccc1 [PHITC, Phenylhexylisothiocyanate]" observed=29.7
molecule="S=C=NCCCCc1ccccc1 [PBITC, phenylbutylisothiocyanate, reference compound]" observed=27.4
molecule="[Se]=C=NCCCCCCc1ccccc1 [ISC-6, Phenylhexyl Isoselenocyanate]" observed=26.1
molecule="[Se]=C=NCCCCc1ccccc1 [ISC-4, Phenylbutyl Isoselenocyanate]" observed=28.0

----------
Attribute: IC50
Tested on: Caco-2
TEST METHOD NOTES: MTS assay, colon cancer cells
REPORTED CONDITIONS: Homo sapiens, Caco-2, 24 h
METRIC: IC50 (µM)

compound="S=C=NCCc1ccccc1 [PEITC, phenylethyl isothiocyanate, reference compound]" metric=IC50 unit_abbrev=µM observed=14
compound="S=C=NCCCCCCc1ccccc1 [PHITC, Phenylhexylisothiocyanate]" metric=IC50 unit_abbrev=µM observed=49
compound="S=C=NCCCCc1ccccc1 [PBITC, phenylbutylisothiocyanate, reference compound]" metric=IC50 unit_abbrev=µM observed=27

----------
Test system: UACC-903 (Melanoma)
TEST METHOD NOTES: IC-50 in various cell lines (Table V), UACC-903
Assay type: cell-based
REPORTED CONDITIONS: Homo sapiens, UACC-903
pIC50: −log10 of the molar value.
METRIC: pIC50

compound="C[S+]([O-])CCCCN=C=[Se] (stereo not shown) [SFN Iso Se]" metric=pIC50 observed=4.77

----------
Test system: UACC 903 cells
TEST METHOD NOTES: Cell cycle analysis (propidium iodide, FACScan)
REPORTED CONDITIONS: 10 μM, 24 hours
METRIC: subG0/G1 cell population

compound="S=C=NCCCCCCc1ccccc1 [PHITC, Phenylhexylisothiocyanate]" target_desc="UACC 903 cells" metric="subG0/G1 cell population" observed=5.4
compound="[Se]=C=NCCCCCCc1ccccc1 [ISC-6, Phenylhexyl Isoselenocyanate]" target_desc="UACC 903 cells" metric="subG0/G1 cell population" observed=7.6
compound="[Se]=C=NCCCCc1ccccc1 [ISC-4, Phenylbutyl Isoselenocyanate]" target_desc="UACC 903 cells" metric="subG0/G1 cell population" observed=12.3
compound="S=C=NCCCCc1ccccc1 [PBITC, phenylbutylisothiocyanate, reference compound]" target_desc="UACC 903 cells" metric="subG0/G1 cell population" observed=10.4

----------
Test system: UACC 903 cells
TEST METHOD NOTES: Cell cycle analysis (propidium iodide, FACScan)
REPORTED CONDITIONS: 5 μM, 24 hours
METRIC: G0/G1 cell population

compound="S=C=NCCCCc1ccccc1 [PBITC, phenylbutylisothiocyanate, reference compound]" target_desc="UACC 903 cells" observed=37.4
compound="[Se]=C=NCCCCCCc1ccccc1 [ISC-6, Phenylhexyl Isoselenocyanate]" target_desc="UACC 903 cells" observed=56.8
compound="[Se]=C=NCCCCc1ccccc1 [ISC-4, Phenylbutyl Isoselenocyanate]" target_desc="UACC 903 cells" observed=59.4
compound="S=C=NCCCCCCc1ccccc1 [PHITC, Phenylhexylisothiocyanate]" target_desc="UACC 903 cells" observed=58.7

----------
Test system: UACC-903 (Melanoma)
TEST METHOD NOTES: IC-50 in various cell lines (Table V), UACC-903
Format: cell-based
REPORTED CONDITIONS: Homo sapiens; UACC-903 (Melanoma); read-out: IC-50
METRIC: IC50 (µM)

molecule="C[S+]([O-])CCCCN=C=S (stereo not shown) [SFN, sulforaphane, reference compound]" target_desc="UACC-903 (Melanoma)" metric=IC50 unit_abbrev=µM observed=40

----------
Quick list: G0/G1 cell population per entry.
System: UACC 903 cells
TEST METHOD NOTES: Cell cycle analysis (propidium iodide, FACScan)
REPORTED CONDITIONS: 15 μM, 24 hours
METRIC: G0/G1 cell population

molecule="S=C=NCCCCc1ccccc1 [PBITC, phenylbutylisothiocyanate, reference compound]" observed=42.1
molecule="[Se]=C=NCCCCCCc1ccccc1 [ISC-6, Phenylhexyl Isoselenocyanate]" observed=41.6
molecule="[Se]=C=NCCCCc1ccccc1 [ISC-4, Phenylbutyl Isoselenocyanate]" observed=35.5
molecule="N#C[Se]CCCCCCc1ccccc1 [PHSC, Phenylhexyl selenocyanate]" observed=61.4
molecule="S=C=NCCCCCCc1ccccc1 [PHITC, Phenylhexylisothiocyanate]" observed=40.7

----------
Test system: normal human fibroblasts (FF2441)
TEST METHOD NOTES: IC50 in normal human fibroblasts
REPORTED CONDITIONS: Homo sapiens, FF2441, 24 h, read-out: IC50 (drug concentration required to kill fibroblasts)
METRIC: IC50 (µM)

molecule="[Se]=C=NCCCCc1ccccc1 [ISC-4, Phenylbutyl Isoselenocyanate]" metric=IC50 observed=37.5

----------
System: UACC 903 cells
TEST METHOD NOTES: Cell cycle analysis (propidium iodide, FACScan)
REPORTED CONDITIONS: 10 μM, 24 hours
Each item that follows carries a reported G0/G1 cell population.
METRIC: G0/G1 cell population

compound="[Se]=C=NCCCCCCc1ccccc1 [ISC-6, Phenylhexyl Isoselenocyanate]" metric="G0/G1 cell population" observed=44.9
compound="S=C=NCCCCCCc1ccccc1 [PHITC, Phenylhexylisothiocyanate]" metric="G0/G1 cell population" observed=43.8
compound="[Se]=C=NCCCCc1ccccc1 [ISC-4, Phenylbutyl Isoselenocyanate]" metric="G0/G1 cell population" observed=41.6
compound="S=C=NCCCCc1ccccc1 [PBITC, phenylbutylisothiocyanate, reference compound]" metric="G0/G1 cell population" observed=37.2

----------
Tested on: PC-3
TEST METHOD NOTES: MTS assay, prostate cancer cells
REPORTED CONDITIONS: Homo sapiens, PC-3, 24 h
METRIC: IC50 (µM)

compound="S=C=NCCc1ccccc1 [PEITC, phenylethyl isothiocyanate, reference compound]" unit_abbrev=µM value_comparator== observed=24
compound="S=C=NCCCCCCc1ccccc1 [PHITC, Phenylhexylisothiocyanate]" unit_abbrev=µM value_comparator== observed=17
compound="[Se]=C=NCCc1ccccc1 [ISC-2, Phenylethyl Isoselenocyanate]" unit_abbrev=µM value_comparator== observed=16
compound="S=C=NCCCCc1ccccc1 [PBITC, phenylbutylisothiocyanate, reference compound]" unit_abbrev=µM value_comparator== observed=24
compound="[Se]=C=NCCCCc1ccccc1 [ISC-4, Phenylbutyl Isoselenocyanate]" unit_abbrev=µM value_comparator== observed=19
compound="[Se]=C=NCc1ccccc1 [ISC-1, Benzyl Isoselenocyanate]" unit_abbrev=µM value_comparator== observed=24
compound="[Se]=C=NCCCCCCc1ccccc1 [ISC-6, Phenylhexyl Isoselenocyanate]" unit_abbrev=µM value_comparator== observed=14
compound="S=C=NCc1ccccc1 [BITC, Benzyl isothiocyanate, reference compound]" unit_abbrev=µM value_comparator=> observed=50

----------
Tested on: UACC 903 melanoma cells
TEST METHOD NOTES: MTS cell viability assay, UACC 903
REPORTED CONDITIONS: Homo sapiens, UACC-903, 24 h
METRIC: IC50 (µM)

molecule="[Se]=C=NCCCCc1ccccc1 [ISC-4, Phenylbutyl Isoselenocyanate]" metric=IC50 observed=12
molecule="S=C=NCCCCCCc1ccccc1 [PHITC, Phenylhexylisothiocyanate]" metric=IC50 observed=15
molecule="S=C=NCCc1ccccc1 [PEITC, phenylethyl isothiocyanate, reference compound]" metric=IC50 observed=12
molecule="[Se]=C=NCCc1ccccc1 [ISC-2, Phenylethyl Isoselenocyanate]" metric=IC50 observed=12
molecule="[Se]=C=NCCCCCCc1ccccc1 [ISC-6, Phenylhexyl Isoselenocyanate]" metric=IC50 observed=10
molecule="S=C=NCc1ccccc1 [BITC, Benzyl isothiocyanate, reference compound]" metric=IC50 observed=15
molecule="S=C=NCCCCc1ccccc1 [PBITC, phenylbutylisothiocyanate, reference compound]" metric=IC50 observed=15
molecule="[Se]=C=NCc1ccccc1 [ISC-1, Benzyl Isoselenocyanate]" metric=IC50 observed=16

----------
Test system: MDA-MB-231
TEST METHOD NOTES: MTS assay, breast cancer cells
REPORTED CONDITIONS: Homo sapiens, MDA-MB-231, 24 h
pIC50: −log10 of the molar value.
METRIC: pIC50

compound="S=C=NCCCCc1ccccc1 [PBITC, phenylbutylisothiocyanate, reference compound]" observed=4.57
compound="S=C=NCCCCCCc1ccccc1 [PHITC, Phenylhexylisothiocyanate]" observed=4.62
compound="[Se]=C=NCc1ccccc1 [ISC-1, Benzyl Isoselenocyanate]" observed=4.54
compound="[Se]=C=NCCc1ccccc1 [ISC-2, Phenylethyl Isoselenocyanate]" observed=4.70

----------
Entries annotated with measured pIC50
System: MDA-MB-231
TEST METHOD NOTES: MTS assay, breast cancer cells
REPORTED CONDITIONS: Homo sapiens, MDA-MB-231, 24 h
pIC50: −log10 of the molar value.
METRIC: pIC50

molecule="S=C=NCCc1ccccc1 [PEITC, phenylethyl isothiocyanate, reference compound]" observed=4.42
molecule="[Se]=C=NCCCCCCc1ccccc1 [ISC-6, Phenylhexyl Isoselenocyanate]" observed=4.66
molecule="[Se]=C=NCCCCc1ccccc1 [ISC-4, Phenylbutyl Isoselenocyanate]" observed=4.68
molecule="S=C=NCc1ccccc1 [BITC, Benzyl isothiocyanate, reference compound]" observed=4.38
